EXPERIMENT_DESCRIPTION: Growth inhibition of proapoptotic stimuli-sensitive human Hs683 cells after 72 hrs by MTT assay
Type: functional, cell-based, Hs 683
COND: hs 683
RECORDED_ENDPOINT: IC50

Specify measured IC50 for C[N+]12CCC3=C[C@H](O)[C@@H](O)[C@@H](c4cc5c(cc4C1)OCO5)[C@@H]32 (stereo partly specified) .
> 10 µM

====

EXPERIMENT_DESCRIPTION: Growth inhibition of human WI38 cells after 72 hrs by MTT assay
Format: cell-based
COND: WI-38, 72 h
Below, each entry is listed with its recorded IC50.
Write down the numeric answer in µM and omit the unit.

Study these solved cases before continuing.
Specify measured IC50 for O[C@H]1[C@H]2c3cc4c(cc3CN3CCC(=C[C@@H]1Cl)[C@H]23)OCO4 .
46

Specify measured IC50 for CC(=O)O[C@H]1C=C2CCN3Cc4cc5c(cc4[C@H]([C@@H]1O)[C@@H]23)OCO5 .
88.5

Specify measured IC50 for c1cc2c3c(c1)-c1cc4c(cc1CN3CC2)OCO4 [ANHYDROLYCORINE] .
30.1

Specify measured IC50 for C1=C2CCN3Cc4cc5c(cc4[C@H]([C@@H]4O[C@H]14)[C@@H]23)OCO5 .
28.6

Now look at this one.
Specify measured IC50 for COc1cc2c(cc1O)[C@@H]1[C@H](O)[C@@H](O)C=C3CCN(C2)[C@H]31 .
44
